# Tested on: RPMI-8226 leukemia
# Experiment summary: NCI-60 one-dose screen, 48 h (100 = growth as untreated, 0 = no growth, -100 = all killed)
# Details: 10 µM unless noted
Compounds without any hit were thinned out: in the full panel of roughly 83,000, 20% have a hit.
Recorded growth, one value per entry.
Reply with just the number (in %).

A selection of reference data follows.
Compound	growth (%)
COc1c(O)c2c3c(c1OC)-c1ccccc1CC3N(C)CC2 (stereo unspecified)	102
O=[N+]([O-])c1cccc([As]=[As]c2cccc([N+](=O)[O-])c2)c1 (stereo unspecified)	-39.3
N#C[Se]CCCNS(=O)(=O)C1CC2C=CC1C2 (stereo unspecified)	-29.5
CNC(=O)Oc1cccc(N(C)C)c1	101
Cc1cc([N+](=O)[O-])c(Cl)cc1NS(=O)(=O)c1ccccc1	37.3

Now for the compound whose growth we want.
What value of growth has been reported for the following compound? `C/C(=N/OC(=O)N(C)C)c1ccc(Cl)cc1Cl` 103
